assay: In vivo kinetics experiment (radioactivity distribution); parameters: species or system Wistar male rat; conditions: rat, caudal vein, 30 min after administration
experimental.readout: Radioactivity distribution Femur (% ID/g)
Answer in % ID/g, number only, no unit symbol.

>  <compound>
Fc1cc2nc(-c3cncc(Cn4ccnc4)c3)n(CC[18F])c2cc1Cl [[^18F] 100]

>  <experimental.readout>
Radioactivity distribution Femur

>  <reported.value>
0.71

$$$$
>  <compound>
[123I]c1ccc2nc(-c3cncc(Cn4ccnn4)c3)n(C3CC3)c2c1 [[^123I] 603]

>  <experimental.readout>
Radioactivity distribution Femur

>  <reported.value>
0.83

$$$$

Enquiry: Identify measured Radioactivity distribution Femur corresponding to Fc1cc2nc(-c3cncc(Cn4ccnc4)c3)n(CCC[18F])c2cc1Cl [[^18F] 500]
Return: 0.14

Enquiry: Please list Radioactivity distribution Femur recorded for the compound Fc1cc2nc(-c3cncc(Cn4ccnc4)c3)n(CC[18F])c2cc1Br [[^18F] 200]
Return: 0.40

---

assay: In vivo kinetics experiment (radioactivity distribution); set-up: species or system Wistar male rat; settings: rat, caudal vein, 10 min after administration
Threshold check on Adrenal gland/muscle ratio of radioactivity accumulation: strictly below 50 is YES; on or above 50 is NO.

Below, 5 compounds whose answers are already recorded.
>  <compound>
Fc1cc2nc(-c3cncc(Cn4ccnc4)c3)n(CCC[18F])c2cc1Cl [[^18F] 500]

>  <answer.label>
NO

$$$$
>  <compound>
FCCn1c(-c2cncc(Cn3ccnc3)c2)nc2cc(F)c([123I])cc21 [[^123I] 400]

>  <answer.label>
NO

$$$$
>  <compound>
[123I]c1ccc2nc(-c3cncc(Cn4ccnn4)c3)n(C3CC3)c2c1 [[^123I] 603]

>  <answer.label>
YES

$$$$
>  <compound>
[123I]c1ccc2nc(-c3cncc(Cn4ccnc4)c3)n(C3CC3)c2c1 [[^123I] 602]

>  <answer.label>
NO

$$$$
>  <compound>
Fc1cc2nc(-c3cncc(Cn4ccnc4)c3)n(CC[18F])c2cc1Br [[^18F] 200]

>  <answer.label>
NO

$$$$

Enquiry: Does the reported Adrenal gland/muscle ratio of radioactivity accumulation of the following compound sit strictly below 50? Fc1cc2nc(-c3cncc(Cn4ccnc4)c3)n(CC[18F])c2cc1Cl [[^18F] 100]
Return: NO

---

experiment: In vivo kinetics experiment (radioactivity distribution); design: species or system Wistar male rat; details: rat, caudal vein, 30 min after administration
Below, each entry is listed with its recorded Radioactivity distribution Heart.
// units = % ID/g; emit number, no label

>  <compound>
[123I]c1ccc2nc(-c3cncc(Cn4ccnn4)c3)n(C3CC3)c2c1 [[^123I] 603]

>  <units.text>
% ID/g

>  <reported.value>
0.64

$$$$
>  <compound>
Fc1cc2nc(-c3cncc(Cn4ccnc4)c3)n(CC[18F])c2cc1Br [[^18F] 200]

>  <units.text>
% ID/g

>  <reported.value>
0.33

$$$$
>  <compound>
FCCn1c(-c2cncc(Cn3ccnc3)c2)nc2cc(F)c([123I])cc21 [[^123I] 400]

>  <units.text>
% ID/g

>  <reported.value>
0.49

$$$$
>  <compound>
[123I]c1ccc2nc(-c3cncc(Cn4ccnc4)c3)n(C3CC3)c2c1 [[^123I] 602]

>  <units.text>
% ID/g

>  <reported.value>
0.49

$$$$
>  <compound>
Fc1cc2nc(-c3cncc(Cn4ccnc4)c3)n(CC[18F])c2cc1Cl [[^18F] 100]

>  <units.text>
% ID/g

>  <reported.value>
0.27

$$$$

--- query ---
Enquiry: Given Fc1cc2nc(-c3cncc(Cn4ccnc4)c3)n(CCC[18F])c2cc1Cl [[^18F] 500] , respond with its Radioactivity distribution Heart.
Return: 0.25
